Source listed as PubChem BioAssay.

Attribute: inhibition
# experimentDescription: 384-well plate pilot, post-Golgi transport modulator project, inhibition of yeast transport mutant growth (AID 636)
# testSettings: absorbance 615 nm, about 18 h, stronger effect = higher value
Activity calls are given as the source filed them. Cut-off read from the data, not from the text of the source: active = inhibition above about 31%; inactive = the rest.

Example entries and their recorded answers appear below.
-- ask Data request, read-out inhibition, for CCOC(=O)c1c(-c2cccs2)csc1NC(=O)CCCC(=O)O
-- reply -5.79% (inactive)

-- ask Same question, CCOC(=O)c1cnc(-n2cc(C)cn2)nc1Nc1ccccc1OC this time
-- reply -4.55% (inactive)

-- ask Same question, O=C(Nc1ccccc1)c1cccc(N2CCCC2=O)c1 this time
-- reply -1.07% (inactive)

Further cases:
-- ask Data request, read-out inhibition, for O=C(O)CN1C(=O)CNC1=O
-- reply -4.86% (inactive)

-- ask Same question, CCOC(=O)C1CCN(C(=O)COc2ccc(Cl)cc2Cl)CC1 this time
-- reply -3.64% (inactive)

-- ask Same question, O=S1(=O)CCC(NS(=O)(=O)/C=C/c2ccccc2)C1 (configuration not stated) this time
-- reply -6.22% (inactive)

-- ask Same question, CCOC(=O)c1c(NC(=O)c2cccs2)sc(C)c1C this time
-- reply -5.33% (inactive)

-- ask Same question, Cc1cc(-c2ccccc2)c(C#N)c(N)n1 this time
-- reply -2.3% (inactive)

-- ask Same question, CCc1cccc(NS(=O)(=O)c2c(C)n[nH]c2C)c1 this time
-- reply -6.05% (inactive)

-- ask Same question, Cc1cc(C(=O)NCCCN2CCOCC2)n(-c2ccccc2)n1 this time
-- reply -2.27% (inactive)

-- ask Same question, O=C(O)CCNc1nc(-c2ccccc2)nc2ccccc12 this time
-- reply -0.13% (inactive)

-- ask Same question, CCOc1ccc(C2CC(=O)NC3=C2C(=O)CCC3)cc1Cl (configuration not stated) this time
-- reply -4.21% (inactive)

---

# experimentDescription: reversal of MRP1-mediated doxorubicin resistance, pilot screen, H69AR cells, doxorubicin co-treatment (AID 601)
# testSettings: H69AR cells + 2 uM doxorubicin, CellTiter-Glo, 72 h; measured here: viability with 2 uM doxorubicin; at 10 µM; stronger effect = lower value
Class key for viability values: low interval = under 80%, middle interval = from 80% up to 90%, high interval = 90% and over

As a guide, the following entries are already answered.
-- ask Input O=c1[nH]c2cccnc2n1Cc1ccco1 ; output its category
-- reply middle interval

-- ask Same question, COc1ccc(OC)c(C2C(C#N)=C(N)Oc3cc(C)[nH]c(=O)c32)c1 (configuration not stated) this time
-- reply high interval

-- ask Same question, COC(=O)Nc1ccc(C)cc1NC(=O)OC this time
-- reply high interval

-- ask Same question, CCOC(=O)C(NC(=O)OC(C)C)(Nc1nccs1)C(F)(F)F (configuration not stated) this time
-- reply high interval

-- ask Same question, CCOc1ccc(C(=O)N(CN2CCCC2=O)c2ccc(C)cc2)cc1 this time
-- reply middle interval

Further cases:
-- ask Input Cc1c(C(=O)Nc2cnccn2)oc2ccccc12 ; output its category
-- reply low interval

-- ask Same question, COCCN(C(=O)Cn1nnc2ccccc21)C(C(=O)NC1CCCC1)c1cc(OC)ccc1OC (configuration not stated) this time
-- reply high interval

-- ask Same question, Cc1ccc(C(=O)CSc2nnc(-c3cccnc3)n2N)cc1 this time
-- reply low interval

-- ask Same question, C=CCn1c(=O)[nH]c2cc(C(=O)N3CCN(c4cc(C)ccc4C)CC3)ccc2c1=O this time
-- reply low interval

---

# system: Receptor tyrosine-protein kinase erbB-2 (Homo sapiens)
# experimentDescription: reducers of endogenous Her2 protein level, primary screen, SKBR3 breast tumor cells, AlphaScreen, ATP viability (AID 461);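 for Her2 level: lower value means less Her2 protein in the cells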;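 for viability: percent of carrier control wells set as 100% viability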
# testSettings: 18-24 h, at 10 µM, stronger effect = lower value
Attribute: Her2 level
Numbers only; they are read as %.

Example entries and their recorded answers appear below.
-- ask # query: Her2 level | item OC(COc1ccccc1)CN1C2=NCCCN2c2ccccc21 (configuration not stated) | system: Receptor tyrosine-protein kinase erbB-2 (Homo sapiens)
-- reply 79.5

-- ask Same question, COc1ccc(OC)c(NC(=O)CSc2nc3ccccc3c(=O)n2CCNC(C)=O)c1 this time
-- reply 108

-- ask Same question, Cc1cc(C)cc(-n2nnc(C(=O)NCc3ccco3)c2N)c1 this time
-- reply 82

-- ask Same question, CC(=O)c1ccc(OCC(O)CN2CC(C)OC(C)C2)cc1 (configuration not stated) this time
-- reply 80.5

-- ask Same question, CCC(c1nnc(SCC(=O)NCC2CCCO2)n1Cc1ccccc1)N(C)C (configuration not stated) this time
-- reply 98

Further cases:
-- ask # query: Her2 level | item CNC(=O)c1ccc(N(Cc2ccccc2C)S(C)(=O)=O)cc1 | system: Receptor tyrosine-protein kinase erbB-2 (Homo sapiens)
-- reply 102

-- ask Same question, CCc1nnc(NC(=O)c2ccc(COc3ccccc3)o2)s1 this time
-- reply 104

-- ask Same question, CCOC(=O)c1ccc(NC(=O)COc2ccc(-n3cnnn3)cc2)cc1 this time
-- reply 95

-- ask Same question, CCOC(=O)N1CCN(Cc2cc(=O)oc3ccc4ccccc4c23)CC1 this time
-- reply 86

-- ask Same question, O=C(c1ccccc1F)N1CCN(Cc2cccc(Cl)c2)CC1 this time
-- reply 104

-- ask Same question, COc1ccc(OC)c(CNC(=O)COc2cc(=O)n(C)c3ccccc23)c1 this time
-- reply 86.5

-- ask Same question, CC1(C)Cc2nc3oc4c(N(CCO)Cc5ccccc5)ncnc4c3cc2CO1 this time
-- reply 86.5

---

# experimentDescription: reducers of endogenous Her2 protein level, primary screen, SKBR3 breast tumor cells, AlphaScreen, ATP viability (AID 461);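 for viability: percent of carrier control wells set as 100% viability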
# testSettings: 18-24 h, measured here: SKBR3 viability, ATP luminescence, at 10 µM
Attribute: viability
Numbers only; they are read as %.

-- ask Data request, read-out viability, for Nc1c(C2=NCCO2)nnn1Cc1ccccc1
-- reply 118

---

# experimentDescription: HUVEC growth inhibition – cell-based, human, primary screen (AID 575);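 note: 100% = median of untreated cell wells with 0.1% DMSO on each plate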
# testSettings: HUVEC proliferation, CellTiter-Glo luminescence, 72 h; at 10 µM; stronger effect = lower value
Active and inactive are the calls of the source.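 How the source made its calls: active means viability at or below 30% in both replicate assays; inconclusive means viability at or below 30% in just one of the two assays; inactive means the rest.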
measuredAttribute: viability

Example entries and their recorded answers appear below.
-- ask Data request, read-out viability, for CC(C)(C)n1nnnc1CN1CCN(C2CCCC2)CC1
-- reply 101% (inactive)

-- ask Same question, Nc1nnc(SCC(=O)N2CCc3ccccc32)n1-c1ccccc1 this time
-- reply 82% (inactive)

-- ask Same question, Cc1ccccc1OCCN1C(=O)NC2(CCc3ccccc32)C1=O (stereo unspecified) this time
-- reply 92.9% (inactive)

Further cases:
-- ask Data request, read-out viability, for O=C(NCC1COc2ccccc2O1)C1CCCN(S(=O)(=O)c2cnc[nH]2)C1 (stereo unspecified)
-- reply 91.9% (inactive)

-- ask Same question, Cc1ccc(NC(=O)CSc2nnc(-c3ccncc3)n2C)cc1C this time
-- reply 110% (inactive)

---

# experimentDescription: 384-well plate pilot, post-Golgi transport modulator project, inhibition of yeast transport mutant growth (AID 636)
# testSettings: absorbance 615 nm, about 18 h, stronger effect = higher value
Attribute: inhibition
Numbers only; they are read as %.

Example entries and their recorded answers appear below.
-- ask Data request, read-out inhibition, for Nc1nnn(Cc2ccccc2)n1
-- reply -5.21

-- ask Same question, O=C(Nc1ccccc1C(=O)NCC1CCCO1)c1ccco1 (configuration not stated) this time
-- reply -1.71

-- ask Same question, Cc1cc(NC(=O)CCC(=O)N(CCc2ccccc2)C(C(=O)NC2CCCC2)c2ccco2)no1 (configuration not stated) this time
-- reply 1.47

-- ask Same question, COc1ccccc1NC(=O)c1cc2n(n1)C(C(F)(F)F)CC(c1ccc3c(c1)OCO3)N2 (configuration not stated) this time
-- reply -4.03

-- ask Same question, O=C1CN=C(Nc2cccc(C(F)(F)F)c2)N1C1CCCC1 this time
-- reply -3.33

Further cases:
-- ask Data request, read-out inhibition, for O=C(C(c1ccccc1)c1ccccc1)N1CCN(Cc2ccccn2)CC1
-- reply -1.03

-- ask Same question, CC(=O)c1cccc(NC(=O)N2CCCC2C(=O)NCc2ccc(C)cc2)c1 (configuration not stated) this time
-- reply -8.92

-- ask Same question, CCCCCn1c(N2CCN(Cc3ccccc3)CC2)nc2c1c(=O)[nH]c(=O)n2C this time
-- reply -6.67

-- ask Same question, CC(C)CCNc1cc(=O)n(C)c(=O)n1C this time
-- reply -1.3

-- ask Same question, Cn1c(=O)c2c(ncn2CC(O)CNc2ccc(Cl)cc2)n(C)c1=O (configuration not stated) this time
-- reply -0.53

-- ask Same question, CCn1c(SCC(=O)Nc2nc(C)cs2)nnc1-c1ccco1 this time
-- reply -3.33

-- ask Same question, Cc1ccc(C)c(N2CCN(C(=O)C3CCN(S(=O)(=O)c4c(C)noc4C)CC3)CC2)c1 this time
-- reply -2.89

-- ask Same question, O=C(CN1C(=O)NC2(CCCCCC2)C1=O)N1CCC(Cc2ccccc2)CC1 this time
-- reply -5.33
